Each entry below carries its reported Tox 50.
# System: L6 Sketal muscle myoblast
# ASSAY EXPLANATION: Cellular cytotoxicity screen, Resazurin reduction
# Type: cell-based, rat
Quick note: give the figure in µM, leave out the unit.

CCS(=O)(=O)N1CCC2(CC1)OOC1(OO2)C2CC3CC(C2)CC1C3 [Tetraoxane 39b]    31

Now turn to the next molecule.
(Q) Would you mind telling me what Tox 50 value was observed for O=C(CC1CCC2(CC1)OOC1(OO2)C2CC3CC(C2)CC1C3)N1CCOCC1 (stereo not shown) [Tetraoxane 29h] ?
(A) 23

----------
# Test system: 3D7 strain of Plasmodium falciparum
# ASSAY EXPLANATION: In vitro antimalarial activity, 48-h [3H]-hypoxanthine incorporation assay
# Type: cell-based
# EXPERIMENTAL CONTEXT: 3D7, 3D7 strain, mean of triplicate results, Table 5, read-out: Mean IC50
Recorded IC50 values for a group of compounds are listed next.
Record the value in nM, omitting the unit from your answer.

Please review the following examples before continuing.
O=C(CC1CCC2(CC1)OOC1(CCCCCCCCCCC1)OO2)N1CCSCC1 [Tetraoxane 28i]    26.9
O=C(CC1CCC2(CC1)OOC1(OO2)C2CC3CC(C2)CC1C3)N1CCSCC1 (stereo not shown) [Tetraoxane 29i]    5.9
O=C(CC1CCC2(CC1)OOC1(CCCCC1)OO2)NCCN1CCCC1 [Tetraoxane 27d]    19.1

Let's switch to this compound now.
(Q) Given the compound CN1CCN(C(=O)CC2CCC3(CC2)OOC2(OO3)C3CC4CC(C3)CC2C4)CC1 (stereo not shown) [Tetraoxane 29l] , what is its reported IC50?
(A) 0.5

----------
# Test system: Vero Kidney
# ASSAY EXPLANATION: Cellular cytotoxicity screen, Resazurin reduction
# Assay type: cell-based, African green monkey, Cercopithecus aethiops
MEASURED QUANTITY: Tox 50

O=S(=O)(C1CC1)N1CCC2(CC1)OOC1(OO2)C2CC3CC(C2)CC1C3 [Tetraoxane 39d]    >50 µM
O=C(CC1CCC2(CC1)OOC1(OO2)C2CC3CC(C2)CC1C3)N1CCOCC1 (stereo not shown) [Tetraoxane 29h]    >50 µM
COc1cccc2c1C(=O)c1c(O)c3c(c(O)c1C2=O)C[C@@](O)(C(=O)CO)C[C@@H]3O[C@H]1C[C@H](N)[C@H](O)[C@H](C)O1    >5 µM

(Q) Entry CCS(=O)(=O)N1CCC2(CC1)OOC1(OO2)C2CC3CC(C2)CC1C3 [Tetraoxane 39b] has what Tox 50?
(A) >50 µM

----------
The molecules listed here are annotated with their IC50.
# Test system: 3D7 strain of Plasmodium falciparum
# ASSAY EXPLANATION: In vitro antimalarial activity, 48-h [3H]-hypoxanthine incorporation assay
# Assay type: cell-based
# EXPERIMENTAL CONTEXT: 3D7, read-out: Mean IC50
Record the value in nM, omitting the unit from your answer.

Worked examples follow.
CCN(CC)CCCC(C)Nc1ccnc2cc(Cl)ccc12 (stereo not shown) [Chloroquine, reference compound]    8.5
O=S(=O)(C1CC1)N1CCC2(CC1)OOC1(OO2)C2CC3CC(C2)CC1C3 [Tetraoxane 39d]    3.52
CCS(=O)(=O)N1CCC2(CC1)OOC1(OO2)C2CC3CC(C2)CC1C3 [Tetraoxane 39b]    5.55
O=C(CC1CCC2(CC1)OOC1(OO2)C2CC3CC(C2)CC1C3)N1CCOCC1 (stereo not shown) [Tetraoxane 29h]    5.2
O=C1CCN(C(=O)N2CCOCC2)CC1 [Tetraoxane 34f]    4.7
O=C(N1CCCCC1)N1CCC(OO)(OO)CC1 [Tetraoxane 34i]    7.2

Now look at this one.
(Q) Given the entry O=C(N1CCCCC1)N1CCC2(CC1)OOC1(CCCCC1)OO2 [Tetraoxane 34k] , what IC50 was observed with 3D7 strain of Plasmodium falciparum?
(A) 7
